# test system: Voltage-dependent N-type calcium channel subunit alpha-1B (Homo sapiens) (UniProt Q00975)
# Sequence (Q00975 whole entry, looked up): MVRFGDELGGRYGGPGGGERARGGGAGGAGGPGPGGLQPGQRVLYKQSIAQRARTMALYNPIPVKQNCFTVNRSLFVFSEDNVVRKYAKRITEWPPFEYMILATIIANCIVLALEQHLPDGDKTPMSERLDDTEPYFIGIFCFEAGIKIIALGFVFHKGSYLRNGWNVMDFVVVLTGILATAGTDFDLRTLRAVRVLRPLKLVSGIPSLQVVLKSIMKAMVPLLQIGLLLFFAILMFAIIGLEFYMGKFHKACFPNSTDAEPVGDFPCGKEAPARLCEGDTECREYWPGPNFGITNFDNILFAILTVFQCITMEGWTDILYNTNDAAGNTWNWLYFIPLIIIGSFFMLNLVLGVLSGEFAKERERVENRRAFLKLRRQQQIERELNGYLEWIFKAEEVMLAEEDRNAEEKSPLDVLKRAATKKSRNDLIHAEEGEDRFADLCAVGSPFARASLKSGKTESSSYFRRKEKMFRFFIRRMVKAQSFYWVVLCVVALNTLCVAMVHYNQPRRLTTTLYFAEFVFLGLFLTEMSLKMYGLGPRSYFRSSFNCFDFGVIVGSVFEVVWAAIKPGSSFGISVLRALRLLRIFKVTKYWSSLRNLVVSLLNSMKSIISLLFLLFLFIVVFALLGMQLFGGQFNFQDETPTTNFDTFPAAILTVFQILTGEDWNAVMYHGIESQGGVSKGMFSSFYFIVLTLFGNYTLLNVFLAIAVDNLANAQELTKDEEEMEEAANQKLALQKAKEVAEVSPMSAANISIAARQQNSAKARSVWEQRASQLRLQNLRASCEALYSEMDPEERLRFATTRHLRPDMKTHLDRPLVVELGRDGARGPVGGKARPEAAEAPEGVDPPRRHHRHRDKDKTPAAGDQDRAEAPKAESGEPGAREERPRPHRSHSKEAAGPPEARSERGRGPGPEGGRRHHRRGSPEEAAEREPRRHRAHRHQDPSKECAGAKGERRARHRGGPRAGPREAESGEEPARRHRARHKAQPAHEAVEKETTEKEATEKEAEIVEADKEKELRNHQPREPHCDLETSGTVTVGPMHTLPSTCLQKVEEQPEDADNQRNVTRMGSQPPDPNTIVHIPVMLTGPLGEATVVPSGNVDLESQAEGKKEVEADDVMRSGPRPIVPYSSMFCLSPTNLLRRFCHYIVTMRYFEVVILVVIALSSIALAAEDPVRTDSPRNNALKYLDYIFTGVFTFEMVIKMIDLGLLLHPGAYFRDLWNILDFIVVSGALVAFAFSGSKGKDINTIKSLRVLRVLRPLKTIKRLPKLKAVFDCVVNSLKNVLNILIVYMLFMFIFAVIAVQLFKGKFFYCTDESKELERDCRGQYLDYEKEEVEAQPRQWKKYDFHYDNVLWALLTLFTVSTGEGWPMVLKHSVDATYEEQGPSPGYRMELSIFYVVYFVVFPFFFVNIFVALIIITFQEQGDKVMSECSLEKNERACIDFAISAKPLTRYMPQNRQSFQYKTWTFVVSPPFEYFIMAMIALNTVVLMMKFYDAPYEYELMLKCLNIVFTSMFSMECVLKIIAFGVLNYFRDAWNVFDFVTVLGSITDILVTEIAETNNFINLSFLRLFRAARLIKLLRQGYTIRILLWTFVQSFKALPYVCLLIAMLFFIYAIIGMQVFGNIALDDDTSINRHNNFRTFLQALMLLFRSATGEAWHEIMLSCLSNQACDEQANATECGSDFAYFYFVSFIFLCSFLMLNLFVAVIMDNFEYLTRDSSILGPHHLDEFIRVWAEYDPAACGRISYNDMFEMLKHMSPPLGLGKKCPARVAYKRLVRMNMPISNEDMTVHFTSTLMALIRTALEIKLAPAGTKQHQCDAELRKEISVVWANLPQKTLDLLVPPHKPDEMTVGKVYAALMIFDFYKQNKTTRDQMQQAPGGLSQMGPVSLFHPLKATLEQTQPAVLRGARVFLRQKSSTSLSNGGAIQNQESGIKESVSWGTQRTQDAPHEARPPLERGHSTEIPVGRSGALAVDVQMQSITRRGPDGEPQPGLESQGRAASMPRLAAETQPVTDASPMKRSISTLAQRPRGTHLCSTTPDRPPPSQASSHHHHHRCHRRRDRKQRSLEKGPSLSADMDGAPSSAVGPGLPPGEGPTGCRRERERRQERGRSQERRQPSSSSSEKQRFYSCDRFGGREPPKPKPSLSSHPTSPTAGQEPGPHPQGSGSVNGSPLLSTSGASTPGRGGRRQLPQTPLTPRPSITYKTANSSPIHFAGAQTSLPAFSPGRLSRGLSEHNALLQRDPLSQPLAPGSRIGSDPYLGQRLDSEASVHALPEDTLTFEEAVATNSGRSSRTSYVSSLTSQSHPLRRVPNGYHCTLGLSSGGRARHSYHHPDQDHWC
# assay info: disruptors of CaV2.2 binding to Mint1 – biochemical, HTRF (AID 2073)
# assay context: HTRF protein-protein interaction, Mint1-CaV2.2; at 20 µM; stronger effect = higher value
The campaign covered roughly 290,000 compounds. About 570 (0.2%) were called active. Roughly 1% stayed inconclusive and do not appear here. What follows is part of a selection rich in actives, with near analogues and random picks from the rest.
endpoint: inhibition (%)
Express it in %; write the number only.

Take a look at these entries with their results.
>  <compound>
CCn1ccnc1CN(C)C(=O)c1ccc(OC2CCN(CCc3ccccc3)CC2)cc1

>  <test system>
Voltage-dependent N-type calcium channel subunit alpha-1B (Homo sapiens) (UniProt Q00975)

>  <recorded result>
6.5

$$$$
>  <compound>
CCOC(=O)c1cnn(-c2nc(-c3ccccc3)nc3c2COC(C)(C)C3)c1N

>  <test system>
Voltage-dependent N-type calcium channel subunit alpha-1B (Homo sapiens) (UniProt Q00975)

>  <recorded result>
-0.5

$$$$
>  <compound>
COc1cc(OC)c(C2CC(=O)N3CN(c4ccccc4C)CSC3=C2C#N)cc1OC (stereo not drawn)

>  <test system>
Voltage-dependent N-type calcium channel subunit alpha-1B (Homo sapiens) (UniProt Q00975)

>  <recorded result>
73.1

$$$$

Return reported inhibition; argument: O=C(OCn1ncc(Cl)c(Cl)c1=O)c1ccc(F)cc1
-3

What do you have for N#CC1=C2SCN(c3ccccc3)CN2C(=O)CC1c1cccs1 (stereo not drawn) ?
74

What do you have for CCOC(=O)c1c(-n2cnnn2)sc(C)c1C ?
-6.3
